# testedSystem: CREB-binding protein (Homo sapiens, UniProt Q92793)
# protocolDescription: CREBBP DiscoverX BROMOscan
propertyName: Kd (µM)

[[record]]
substancesmiles = "CC(=O)Nc1c(F)cc(C(=O)N[C@H]2CC[C@H](O)CC2)cc1O[C@@H](C)c1ccccc1"
displayunit = "µM"
resultvalue = 30


---

# testedSystem: Bromodomain-containing protein 1 (Homo sapiens, UniProt O95696)
# Sequence (O95696 whole entry): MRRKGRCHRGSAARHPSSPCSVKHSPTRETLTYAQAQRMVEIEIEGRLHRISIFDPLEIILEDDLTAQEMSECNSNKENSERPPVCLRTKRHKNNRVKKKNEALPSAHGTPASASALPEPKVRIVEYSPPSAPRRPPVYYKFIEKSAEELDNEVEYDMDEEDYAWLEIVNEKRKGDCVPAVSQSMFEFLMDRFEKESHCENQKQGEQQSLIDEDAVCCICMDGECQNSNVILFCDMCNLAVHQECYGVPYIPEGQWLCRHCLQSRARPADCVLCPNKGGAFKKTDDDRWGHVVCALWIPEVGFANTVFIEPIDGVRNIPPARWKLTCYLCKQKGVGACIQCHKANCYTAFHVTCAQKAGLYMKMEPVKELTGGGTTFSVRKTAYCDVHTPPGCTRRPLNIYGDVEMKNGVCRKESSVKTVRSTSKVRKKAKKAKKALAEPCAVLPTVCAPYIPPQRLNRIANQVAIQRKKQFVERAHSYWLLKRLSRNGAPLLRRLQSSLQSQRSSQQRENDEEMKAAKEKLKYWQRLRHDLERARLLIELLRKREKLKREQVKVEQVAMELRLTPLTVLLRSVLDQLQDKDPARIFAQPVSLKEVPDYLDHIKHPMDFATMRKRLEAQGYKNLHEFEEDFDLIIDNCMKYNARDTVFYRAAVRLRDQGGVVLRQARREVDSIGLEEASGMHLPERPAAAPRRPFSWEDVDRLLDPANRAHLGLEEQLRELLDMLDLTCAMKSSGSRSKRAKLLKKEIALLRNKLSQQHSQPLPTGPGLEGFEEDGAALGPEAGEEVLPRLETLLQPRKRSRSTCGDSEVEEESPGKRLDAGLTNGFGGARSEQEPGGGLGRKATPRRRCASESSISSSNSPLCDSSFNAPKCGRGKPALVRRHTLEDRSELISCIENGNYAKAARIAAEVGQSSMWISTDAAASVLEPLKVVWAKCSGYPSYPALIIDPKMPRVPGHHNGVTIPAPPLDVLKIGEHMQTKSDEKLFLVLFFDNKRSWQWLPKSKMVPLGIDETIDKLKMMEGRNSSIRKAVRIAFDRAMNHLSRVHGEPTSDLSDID
# protocolDescription: BRD1 DiscoverX BROMOscan
pKd: −log10 of the molar value.
propertyName: pKd

[[record]]
substancesmiles = "CC(=O)Nc1c(F)cc(C(=O)N[C@H]2CC[C@H](O)CC2)cc1O[C@@H](C)c1ccccc1"
propertyname = "pKd"
resultvalue = 4.52


---

# testedSystem: 5-hydroxytryptamine receptor 1B (Homo sapiens)
# protocolDescription: Cross screening panel
propertyName: IC50

[[record]]
molecule = "CC(=O)Nc1c(F)cc(C(=O)N[C@H]2CC[C@H](O)CC2)cc1O[C@@H](C)c1ccccc1 [GSK046]"
propertyname = "IC50"
resultvalue = "> 100 µM"


---

# testedSystem: Bromodomain testis-specific protein (Homo sapiens, UniProt Q58F21)
# protocolDescription: BRDT(1,2) DiscoverX BROMOscan
propertyName: Kd (nM)

[[record]]
substancesmiles = "CC(=O)Nc1c(F)cc(C(=O)N[C@H]2CC[C@H](O)CC2)cc1O[C@@H](C)c1ccccc1"
displayunit = "nM"
resultvalue = 36


---

# testedSystem: Protein polybromo-1 (Homo sapiens, UniProt Q86U86)
# protocolDescription: PBRM1(2) DiscoverX BROMOscan
propertyName: Kd (µM)

[[record]]
molecule = "CC(=O)Nc1c(F)cc(C(=O)N[C@H]2CC[C@H](O)CC2)cc1O[C@@H](C)c1ccccc1 [GSK046]"
propertyname = "Kd"
displayunit = "µM"
resultvalue = 30


---

# testedSystem: Substance-P receptor (Homo sapiens)
pIC50: −log10 of the molar value.
propertyName: pIC50

[[record]]
substancesmiles = "CC(=O)Nc1c(F)cc(C(=O)N[C@H]2CC[C@H](O)CC2)cc1O[C@@H](C)c1ccccc1"
testedsystem = "Substance-P receptor (Homo sapiens)"
propertyname = "pIC50"
resultvalue = "< 4.60"


---

# testedSystem: Tyrosine-protein kinase Lck (Homo sapiens, UniProt P06239)
# Sequence (P06239 whole entry): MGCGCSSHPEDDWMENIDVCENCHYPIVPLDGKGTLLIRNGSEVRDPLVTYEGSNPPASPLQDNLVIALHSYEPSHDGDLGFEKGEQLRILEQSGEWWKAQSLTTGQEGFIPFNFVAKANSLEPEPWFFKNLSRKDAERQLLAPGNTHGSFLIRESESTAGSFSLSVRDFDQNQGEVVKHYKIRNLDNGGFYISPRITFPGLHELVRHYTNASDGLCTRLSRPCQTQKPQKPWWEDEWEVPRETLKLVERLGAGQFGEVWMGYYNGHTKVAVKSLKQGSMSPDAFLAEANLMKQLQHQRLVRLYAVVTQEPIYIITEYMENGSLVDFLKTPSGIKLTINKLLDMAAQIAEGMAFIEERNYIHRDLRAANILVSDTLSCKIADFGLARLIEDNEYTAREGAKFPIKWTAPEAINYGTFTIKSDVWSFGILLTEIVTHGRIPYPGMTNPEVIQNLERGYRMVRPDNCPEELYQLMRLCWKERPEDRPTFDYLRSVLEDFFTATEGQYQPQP
propertyName: IC50

[[record]]
substancesmiles = "CC(=O)Nc1c(F)cc(C(=O)N[C@H]2CC[C@H](O)CC2)cc1O[C@@H](C)c1ccccc1"
propertyname = "IC50"
resultvalue = "> 31.6 µM"


---

# testedSystem: D(2) dopamine receptor (Homo sapiens, UniProt P14416)
# Sequence (P14416 whole entry): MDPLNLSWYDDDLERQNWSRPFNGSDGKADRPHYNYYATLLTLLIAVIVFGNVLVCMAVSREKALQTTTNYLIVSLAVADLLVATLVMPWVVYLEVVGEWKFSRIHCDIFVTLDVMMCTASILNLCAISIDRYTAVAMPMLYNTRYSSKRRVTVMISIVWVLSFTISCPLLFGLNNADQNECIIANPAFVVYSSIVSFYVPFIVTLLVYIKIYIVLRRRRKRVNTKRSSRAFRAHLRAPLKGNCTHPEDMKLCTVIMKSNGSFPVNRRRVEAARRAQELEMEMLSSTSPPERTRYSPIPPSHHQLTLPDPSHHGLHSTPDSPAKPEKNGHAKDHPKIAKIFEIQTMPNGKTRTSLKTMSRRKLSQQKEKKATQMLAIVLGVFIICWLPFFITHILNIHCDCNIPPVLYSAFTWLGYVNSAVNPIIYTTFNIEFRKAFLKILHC
# protocolDescription: Cross screening panel
propertyName: EC50

[[record]]
compound = "CC(=O)Nc1c(F)cc(C(=O)N[C@H]2CC[C@H](O)CC2)cc1O[C@@H](C)c1ccccc1 [GSK046]"
resultvalue = "> 100 µM"


---

# testedSystem: Mu-type opioid receptor (Homo sapiens)
# Sequence (P35372 whole entry): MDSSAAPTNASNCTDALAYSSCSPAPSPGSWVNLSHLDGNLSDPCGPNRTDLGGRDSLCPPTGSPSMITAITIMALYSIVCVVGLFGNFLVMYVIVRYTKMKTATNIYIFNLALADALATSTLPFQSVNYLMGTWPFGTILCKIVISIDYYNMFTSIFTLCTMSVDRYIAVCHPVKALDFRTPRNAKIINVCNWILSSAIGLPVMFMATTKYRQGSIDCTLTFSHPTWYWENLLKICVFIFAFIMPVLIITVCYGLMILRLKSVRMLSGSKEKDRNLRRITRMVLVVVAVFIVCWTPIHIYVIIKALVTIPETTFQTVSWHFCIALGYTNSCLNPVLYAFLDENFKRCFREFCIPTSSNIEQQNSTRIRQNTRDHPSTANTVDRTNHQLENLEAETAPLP
# protocolDescription: Cross screening panel
pEC50: −log10 of the molar value.
propertyName: pEC50

[[record]]
substancesmiles = "CC(=O)Nc1c(F)cc(C(=O)N[C@H]2CC[C@H](O)CC2)cc1O[C@@H](C)c1ccccc1"
resultvalue = "< 4.00"


---

# testedSystem: Phosphatidylinositol 4,5-bisphosphate 3-kinase catalytic subunit gamma isoform (Homo sapiens, UniProt P48736)
# protocolDescription: Cross screening panel
propertyName: IC50

[[record]]
substancesmiles = "CC(=O)Nc1c(F)cc(C(=O)N[C@H]2CC[C@H](O)CC2)cc1O[C@@H](C)c1ccccc1"
resultvalue = "> 31.6 µM"


---

# testedSystem: Kappa-type opioid receptor (Homo sapiens)
# protocolDescription: Cross screening panel
propertyName: EC50

[[record]]
substancesmiles = "CC(=O)Nc1c(F)cc(C(=O)N[C@H]2CC[C@H](O)CC2)cc1O[C@@H](C)c1ccccc1"
propertyname = "EC50"
resultvalue = "> 100 µM"


---

# testedSystem: Bromodomain testis-specific protein (Homo sapiens, UniProt Q58F21)
# protocolDescription: BRDT(1) DiscoverX BROMOscan
pKd: −log10 of the molar value.
propertyName: pKd

[[record]]
substancesmiles = "CC(=O)Nc1c(F)cc(C(=O)N[C@H]2CC[C@H](O)CC2)cc1O[C@@H](C)c1ccccc1"
propertyname = "pKd"
resultvalue = 5.61


---

# testedSystem: Beta-2 adrenergic receptor (Homo sapiens)
# Sequence (P07550 whole entry): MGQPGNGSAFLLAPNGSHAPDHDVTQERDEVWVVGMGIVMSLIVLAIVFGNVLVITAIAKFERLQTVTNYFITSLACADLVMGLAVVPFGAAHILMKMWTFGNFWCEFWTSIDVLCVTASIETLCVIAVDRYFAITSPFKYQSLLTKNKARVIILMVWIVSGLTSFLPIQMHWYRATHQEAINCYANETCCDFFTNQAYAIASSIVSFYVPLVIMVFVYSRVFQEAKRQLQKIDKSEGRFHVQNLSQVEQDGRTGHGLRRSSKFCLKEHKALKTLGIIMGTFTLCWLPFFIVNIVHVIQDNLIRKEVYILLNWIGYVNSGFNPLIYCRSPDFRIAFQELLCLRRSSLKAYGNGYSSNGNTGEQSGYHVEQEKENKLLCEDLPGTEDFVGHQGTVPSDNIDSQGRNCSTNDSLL
propertyName: IC50

[[record]]
substancesmiles = "CC(=O)Nc1c(F)cc(C(=O)N[C@H]2CC[C@H](O)CC2)cc1O[C@@H](C)c1ccccc1"
resultvalue = "> 100 µM"


---

# testedSystem: Bromodomain-containing protein 2 (Homo sapiens)
# Sequence (P25440 whole entry): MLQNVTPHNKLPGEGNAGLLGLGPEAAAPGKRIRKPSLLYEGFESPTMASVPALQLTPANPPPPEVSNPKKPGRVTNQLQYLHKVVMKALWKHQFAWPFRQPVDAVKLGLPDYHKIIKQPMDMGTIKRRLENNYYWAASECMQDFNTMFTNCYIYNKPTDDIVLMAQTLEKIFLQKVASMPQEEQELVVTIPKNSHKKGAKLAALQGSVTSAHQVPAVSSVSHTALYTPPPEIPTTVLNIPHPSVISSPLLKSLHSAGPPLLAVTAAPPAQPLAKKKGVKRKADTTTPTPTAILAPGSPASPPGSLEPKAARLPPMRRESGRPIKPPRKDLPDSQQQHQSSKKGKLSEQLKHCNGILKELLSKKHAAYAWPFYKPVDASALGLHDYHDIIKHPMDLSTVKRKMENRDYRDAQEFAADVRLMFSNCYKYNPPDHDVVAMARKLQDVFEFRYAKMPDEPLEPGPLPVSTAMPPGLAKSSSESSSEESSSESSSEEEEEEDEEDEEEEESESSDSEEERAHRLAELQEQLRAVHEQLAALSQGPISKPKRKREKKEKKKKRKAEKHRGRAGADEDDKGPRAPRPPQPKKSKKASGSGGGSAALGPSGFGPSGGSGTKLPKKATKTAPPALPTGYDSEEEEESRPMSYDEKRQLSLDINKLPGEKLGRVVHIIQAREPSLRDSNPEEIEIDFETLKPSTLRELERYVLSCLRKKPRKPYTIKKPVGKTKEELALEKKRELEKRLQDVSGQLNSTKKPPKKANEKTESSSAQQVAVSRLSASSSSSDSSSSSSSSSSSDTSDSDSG
# protocolDescription: BRD2(1,2) DiscoverX BROMOscan
propertyName: Kd (nM)

[[record]]
substancesmiles = "CC(=O)Nc1c(F)cc(C(=O)N[C@H]2CC[C@H](O)CC2)cc1O[C@@H](C)c1ccccc1"
propertyname = "Kd"
resultvalue = 100


---

# testedSystem: Bromodomain-containing protein 3 (Homo sapiens)
# Sequence (Q15059 whole entry): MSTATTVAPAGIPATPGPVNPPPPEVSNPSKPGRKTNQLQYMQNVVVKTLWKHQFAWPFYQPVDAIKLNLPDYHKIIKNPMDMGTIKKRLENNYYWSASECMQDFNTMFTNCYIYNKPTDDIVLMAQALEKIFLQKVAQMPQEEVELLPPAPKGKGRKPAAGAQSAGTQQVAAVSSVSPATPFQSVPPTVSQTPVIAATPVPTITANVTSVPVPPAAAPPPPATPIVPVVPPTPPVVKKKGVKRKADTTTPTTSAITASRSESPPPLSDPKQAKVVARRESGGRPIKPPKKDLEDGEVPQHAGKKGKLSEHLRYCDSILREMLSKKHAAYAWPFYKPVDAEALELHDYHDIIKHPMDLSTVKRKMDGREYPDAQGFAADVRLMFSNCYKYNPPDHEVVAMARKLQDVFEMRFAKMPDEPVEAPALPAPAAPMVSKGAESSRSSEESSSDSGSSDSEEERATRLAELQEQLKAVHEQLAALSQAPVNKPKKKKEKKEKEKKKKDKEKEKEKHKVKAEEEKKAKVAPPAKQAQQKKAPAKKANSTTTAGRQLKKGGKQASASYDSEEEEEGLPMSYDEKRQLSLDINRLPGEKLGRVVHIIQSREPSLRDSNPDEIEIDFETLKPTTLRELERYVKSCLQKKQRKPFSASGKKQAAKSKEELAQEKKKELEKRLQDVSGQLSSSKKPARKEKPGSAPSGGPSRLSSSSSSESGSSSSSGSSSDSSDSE
# protocolDescription: BRD3(1,2) DiscoverX BROMOscan
propertyName: Kd (nM)

[[record]]
substancesmiles = "CC(=O)Nc1c(F)cc(C(=O)N[C@H]2CC[C@H](O)CC2)cc1O[C@@H](C)c1ccccc1"
testedsystem = "Bromodomain-containing protein 3 (Homo sapiens)"
propertyname = "Kd"
resultvalue = 47


---

# testedSystem: Alpha-1B adrenergic receptor (Homo sapiens)
# Sequence (P35368 whole entry): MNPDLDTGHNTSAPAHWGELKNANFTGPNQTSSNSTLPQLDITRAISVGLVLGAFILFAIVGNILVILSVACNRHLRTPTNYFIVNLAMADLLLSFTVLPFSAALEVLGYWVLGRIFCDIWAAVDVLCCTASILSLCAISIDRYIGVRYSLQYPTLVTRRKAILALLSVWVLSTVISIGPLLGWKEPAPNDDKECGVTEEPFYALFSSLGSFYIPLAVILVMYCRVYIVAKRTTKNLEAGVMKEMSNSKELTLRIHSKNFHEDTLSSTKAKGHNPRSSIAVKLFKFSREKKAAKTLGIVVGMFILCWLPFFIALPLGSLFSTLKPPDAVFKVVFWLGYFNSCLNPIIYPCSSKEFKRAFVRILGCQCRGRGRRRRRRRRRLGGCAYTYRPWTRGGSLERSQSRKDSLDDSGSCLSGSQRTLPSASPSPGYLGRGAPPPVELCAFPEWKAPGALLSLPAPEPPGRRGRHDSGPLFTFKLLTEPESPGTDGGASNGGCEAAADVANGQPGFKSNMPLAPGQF
# protocolDescription: Cross screening panel
pKi: −log10 of the molar value.
propertyName: pKi

[[record]]
substancesmiles = "CC(=O)Nc1c(F)cc(C(=O)N[C@H]2CC[C@H](O)CC2)cc1O[C@@H](C)c1ccccc1"
resultvalue = "< 4.60"


---

# testedSystem: Bromodomain-containing protein 7 (Homo sapiens)
# protocolDescription: BRD7 DiscoverX BROMOscan
pKd: −log10 of the molar value.
propertyName: pKd

[[record]]
compound = "CC(=O)Nc1c(F)cc(C(=O)N[C@H]2CC[C@H](O)CC2)cc1O[C@@H](C)c1ccccc1 [GSK046]"
propertyname = "pKd"
resultvalue = 4.52


---

# testedSystem: 5-hydroxytryptamine receptor 3A (Homo sapiens, UniProt P46098)
# Sequence (P46098 whole entry): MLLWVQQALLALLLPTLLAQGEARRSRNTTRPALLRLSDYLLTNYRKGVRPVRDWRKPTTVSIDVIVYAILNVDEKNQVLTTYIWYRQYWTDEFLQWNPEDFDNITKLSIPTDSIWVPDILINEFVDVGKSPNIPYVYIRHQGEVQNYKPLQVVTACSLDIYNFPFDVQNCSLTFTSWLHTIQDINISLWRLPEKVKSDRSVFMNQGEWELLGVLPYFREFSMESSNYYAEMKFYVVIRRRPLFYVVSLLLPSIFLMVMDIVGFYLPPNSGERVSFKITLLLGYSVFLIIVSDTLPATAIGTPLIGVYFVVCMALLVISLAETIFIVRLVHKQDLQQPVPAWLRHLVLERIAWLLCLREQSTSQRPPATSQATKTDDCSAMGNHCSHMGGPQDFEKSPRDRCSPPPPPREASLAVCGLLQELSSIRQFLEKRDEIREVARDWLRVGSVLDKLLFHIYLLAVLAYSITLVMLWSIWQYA
propertyName: IC50

[[record]]
substancesmiles = "CC(=O)Nc1c(F)cc(C(=O)N[C@H]2CC[C@H](O)CC2)cc1O[C@@H](C)c1ccccc1"
resultvalue = "> 50.1 µM"


---

# testedSystem: Muscarinic acetylcholine receptor M2 (Homo sapiens, UniProt P08172)
# Sequence (P08172 whole entry): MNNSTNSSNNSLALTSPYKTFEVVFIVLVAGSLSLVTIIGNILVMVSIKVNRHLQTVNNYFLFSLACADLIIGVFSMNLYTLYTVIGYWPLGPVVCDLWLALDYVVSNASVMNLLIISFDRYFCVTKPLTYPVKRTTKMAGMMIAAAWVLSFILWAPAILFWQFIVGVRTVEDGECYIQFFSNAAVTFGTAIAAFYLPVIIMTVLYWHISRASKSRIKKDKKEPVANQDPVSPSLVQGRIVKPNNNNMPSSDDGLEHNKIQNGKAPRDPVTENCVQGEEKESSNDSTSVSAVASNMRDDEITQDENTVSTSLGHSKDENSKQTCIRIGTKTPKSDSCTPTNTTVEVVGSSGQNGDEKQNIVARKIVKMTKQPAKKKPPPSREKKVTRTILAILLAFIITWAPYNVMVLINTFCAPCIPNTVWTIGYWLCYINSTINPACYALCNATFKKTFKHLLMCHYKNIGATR
pIC50: −log10 of the molar value.
propertyName: pIC50

[[record]]
compound = "CC(=O)Nc1c(F)cc(C(=O)N[C@H]2CC[C@H](O)CC2)cc1O[C@@H](C)c1ccccc1 [GSK046]"
resultvalue = "< 4.30"

